# target system: Diacylglycerol lipase-alpha (Homo sapiens, UniProt Q9Y4D2)
# Sequence (Q9Y4D2 whole entry): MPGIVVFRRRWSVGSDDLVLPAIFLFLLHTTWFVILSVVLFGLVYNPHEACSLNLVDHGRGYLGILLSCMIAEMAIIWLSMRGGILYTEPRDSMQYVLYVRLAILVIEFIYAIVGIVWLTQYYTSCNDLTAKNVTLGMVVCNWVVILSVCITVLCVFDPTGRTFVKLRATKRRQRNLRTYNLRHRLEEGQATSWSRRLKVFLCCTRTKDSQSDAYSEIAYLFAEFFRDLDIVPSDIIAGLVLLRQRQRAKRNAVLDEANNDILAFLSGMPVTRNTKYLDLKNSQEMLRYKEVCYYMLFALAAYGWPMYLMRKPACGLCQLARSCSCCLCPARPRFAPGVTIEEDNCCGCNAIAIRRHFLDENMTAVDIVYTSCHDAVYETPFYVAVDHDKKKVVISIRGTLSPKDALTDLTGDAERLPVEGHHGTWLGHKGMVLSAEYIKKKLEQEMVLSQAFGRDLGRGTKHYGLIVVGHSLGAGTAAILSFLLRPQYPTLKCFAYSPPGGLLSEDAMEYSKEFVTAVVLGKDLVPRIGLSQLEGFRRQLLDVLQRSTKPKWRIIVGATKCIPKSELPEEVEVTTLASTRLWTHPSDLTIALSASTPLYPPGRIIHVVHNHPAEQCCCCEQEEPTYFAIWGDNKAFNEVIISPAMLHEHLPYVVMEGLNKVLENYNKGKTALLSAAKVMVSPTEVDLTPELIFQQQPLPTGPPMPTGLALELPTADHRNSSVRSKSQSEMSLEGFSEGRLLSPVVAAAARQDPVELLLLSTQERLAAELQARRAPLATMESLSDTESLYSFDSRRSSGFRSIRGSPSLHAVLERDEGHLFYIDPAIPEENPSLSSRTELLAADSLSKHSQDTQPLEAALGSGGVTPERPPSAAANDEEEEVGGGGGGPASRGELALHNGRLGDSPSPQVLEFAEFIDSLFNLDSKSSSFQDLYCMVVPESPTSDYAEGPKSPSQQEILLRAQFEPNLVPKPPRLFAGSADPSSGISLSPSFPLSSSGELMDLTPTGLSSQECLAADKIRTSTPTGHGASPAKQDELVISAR
# test name: Inhibition of human DAGLalpha expressed in HEK293T cell membranes
outcome measure: IC50 (nM)

Worked cases, answers included:
{"smiles structure": "CC1(C)CCc2cc(S(=O)(=O)N(CC(=O)O)Cc3cccc(Oc4ccccc4)c3)ccc2O1", "IC50, nM": 56}
{"smiles structure": "CC1(C)CCc2cc(S(=O)(=O)N(CC(=O)O)Cc3ccc(Oc4ccccc4)cc3)ccc2O1", "IC50, nM": 18}

1 = CC1(C)CCc2cc(S(=O)(=O)N(CC(=O)O)Cc3ccc(Oc4ccc(C(F)(F)F)cn4)cc3)ccc2O1
2 = CC1(C)CCc2cc(S(=O)(=O)N(CC(=O)O)Cc3ccccc3Oc3ccccc3)ccc2O1
3 = O=C(O)CN(Cc1ccc(Oc2ccccc2)cc1)S(=O)(=O)c1c(Cl)cccc1Cl
Task: Task for the reader: rank each entry by its IC50, from the minimum upward. Note for the reader: the ranking is given by listing the labels in the order requested.
Output: 1, 2, 3
